Hello, the source for this data is patent US20210198277A1, in case you need it.

target: human EHMT2 913-1193 (Homo sapiens, UniProt Q96KQ7); construct: recombinant purified human EHMT2 913-1193, Viva; purchased Viva; test: EHMT2 enzyme assay on histone peptide substrate (EHMT2 PEP); assay type: biochemical; conditions: Table II; read-out: EHMT2 PEP (IC50 μM)
Sequence (Q96KQ7 913-1193): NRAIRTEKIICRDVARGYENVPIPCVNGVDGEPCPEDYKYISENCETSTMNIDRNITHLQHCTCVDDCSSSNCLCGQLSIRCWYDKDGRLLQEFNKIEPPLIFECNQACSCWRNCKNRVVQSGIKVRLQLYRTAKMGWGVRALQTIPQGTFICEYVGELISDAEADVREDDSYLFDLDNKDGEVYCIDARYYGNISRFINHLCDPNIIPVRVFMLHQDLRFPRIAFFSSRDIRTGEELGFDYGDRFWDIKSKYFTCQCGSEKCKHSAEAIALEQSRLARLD
metric name: IC50

Use these answered entries as a reference point.
| compound | result |
| --- | --- |
| CCCCNc1nc(NCC2CCNCC2)cc(C(N)=O)n1 | > 10 µM |
| CNc1cncc(Nc2ccc(OC)c(OCCCN3CCCC3)c2)n1 | 1 to 10 µM |
| COc1ccc(Nc2nccc(N(C)C3CCOCC3)n2)cc1OCCCN1CCCC1 | 1 to 10 µM |
| COc1ccc(Nc2nccc(NCCn3cccn3)n2)cc1OCCCN1CCCC1 | 0.1 to 1 µM |
| CNc1ccnc(Nc2ccc(F)c(OCCCN3CCCC3)c2)n1 | > 10 µM |

Form entry - test system: human EHMT2 913-1193 (Homo sapiens, UniProt Q96KQ7); read-out: IC50; compound: COc1ccc(Nc2nccc(NCC3CCN(C)CC3)n2)cc1OCCCNc1ccccc1
> 10 µM

What measured IC50 is associated with COc1ccc(Nc2nccc(N3CCCCC3)n2)cc1OCCCN1CCCC1 on human EHMT2 913-1193 (Homo sapiens, UniProt Q96KQ7)?
1 to 10 µM
